As shown below, each of these molecules has a reported Dmax value.
Target: CDK6 (Homo sapiens, UniProt Q00534)
Construct: endogenous in cells
Sequence (Q00534 whole entry): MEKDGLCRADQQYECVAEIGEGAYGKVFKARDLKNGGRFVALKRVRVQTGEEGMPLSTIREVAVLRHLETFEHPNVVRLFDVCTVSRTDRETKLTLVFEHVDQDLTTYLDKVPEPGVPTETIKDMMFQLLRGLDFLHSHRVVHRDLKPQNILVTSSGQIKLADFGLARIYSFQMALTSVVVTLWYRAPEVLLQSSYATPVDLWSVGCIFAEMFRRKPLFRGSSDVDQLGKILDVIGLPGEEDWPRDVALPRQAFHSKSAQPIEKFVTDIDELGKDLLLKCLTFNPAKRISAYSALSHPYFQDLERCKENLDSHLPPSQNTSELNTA
Experiment: CDK6 degradation (DC50, Dmax)
Assay type: cell-based

Worked cases, Dmax given:
Molecule | Value Observed
CC(=O)c1c(C)c2cnc(Nc3ccc(N4CCN(CCC5CCN(c6ccc7c(c6)C(=O)N(C6CCC(=O)NC6=O)C7=O)CC5)CC4)cn3)nc2n(C2CCCC2)c1=O (stereo not drawn) | > 60%
CC(=O)c1c(C)c2cnc(Nc3ccc(N4CCN(CCC5CCN(C(=O)Nc6ccc7c(c6)C(=O)N(C6CCC(=O)NC6=O)C7=O)CC5)CC4)cn3)nc2n(C2CCCC2)c1=O (stereo not drawn) | > 60%

Inquiry: Which Dmax value is on record for CC(=O)c1c(C)c2cnc(Nc3ccc(N4CCN(CCCN(C)c5cccc6c5C(=O)N(C5CCC(=O)NC5=O)C6=O)CC4)cn3)nc2n(C2CCCC2)c1=O (stereo not drawn) ?
Reply text: > 60%

###

Readings of DC50 for the listed compounds
Target: CDK4 (Homo sapiens)
Construct: endogenous in cells
Assay: CDK4 degradation (DC50, Dmax)
Format: cell-based

Use these answered entries as a reference point.
Compound | Value Observed
CC(=O)c1c(C)c2cnc(Nc3ccc(N4CCN(C5CCN(C(=O)N6CCC(c7ccc8c(c7)C(=O)N(C7CCC(=O)NC7=O)C8=O)CC6)CC5)CC4)cn3)nc2n(C2CCCC2)c1=O (centres unmarked) [Compound 37] | > 200 nM
CC(=O)c1c(C)c2cnc(Nc3ccc(N4CCN(C5CCN(C(=O)N6CCN(c7ccc8c(c7)C(=O)N(C7CCC(=O)NC7=O)C8=O)CC6)CC5)CC4)cn3)nc2n(C2CCCC2)c1=O (centres unmarked) [Compound 35] | 50 to 200 nM

Inquiry: Would you kindly share the measured DC50 for CC(=O)c1c(C)c2cnc(Nc3ccc(N4CCN(C(=O)N5CCC(CC6CCN(c7ccc8c(c7)CN(C7CCC(=O)NC7=O)C8=O)CC6)CC5)CC4)cn3)nc2n(C2CCCC2)c1=O (centres unmarked) [Compound 14] ?
Reply text: > 200 nM

Inquiry: What does the record list as DC50 for Cc1nc2c(F)cc(-c3nc(Nc4ccc(CN5CCN(CC6CCN(c7ccc(C(=O)NC8CCC(=O)NC8=O)cc7)CC6)CC5)cn4)ncc3F)cc2n1C(C)C (centres unmarked) [Compound 151] ?
Reply text: 50 to 200 nM

Inquiry: Using the record for CC(=O)c1c(C)c2cnc(Nc3ccc(N4CCN(C5CCN(C(=O)N6CCN(c7ccc8c(c7)CN(C7CCC(=O)NC7=O)C8=O)CC6)CC5)CC4)cn3)nc2n(C2CCCC2)c1=O (centres unmarked) [Compound 36] , report its DC50.
Reply text: > 200 nM

###

Biological target: CDK4 (Homo sapiens, UniProt P11802)
Construct: endogenous in cells
Sequence (P11802 whole entry): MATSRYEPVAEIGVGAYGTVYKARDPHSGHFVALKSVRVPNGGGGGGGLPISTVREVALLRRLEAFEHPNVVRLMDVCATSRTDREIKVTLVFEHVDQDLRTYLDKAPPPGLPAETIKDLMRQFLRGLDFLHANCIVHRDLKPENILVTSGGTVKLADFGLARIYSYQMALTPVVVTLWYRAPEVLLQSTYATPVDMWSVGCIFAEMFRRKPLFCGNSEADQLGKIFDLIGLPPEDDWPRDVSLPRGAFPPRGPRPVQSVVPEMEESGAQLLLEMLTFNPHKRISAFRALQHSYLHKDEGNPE
Test: CDK4 degradation (DC50, Dmax)
Type: cell-based
Parameter DC50: see the listing below.

Completed entries (count: 3):
Compound | Readout Name | Value Observed
CC(=O)c1c(C)c2cnc(Nc3ccc(N4CCN(C(=O)C5CCN(c6ccc(NC7CCC(=O)NC7=O)cc6)CC5)CC4)cn3)nc2n(C2CCCC2)c1=O (centres unmarked) [Compound 117] | DC50 | < 50 nM
CC(=O)c1c(C)c2cnc(Nc3ccc(N4CCN(C5CN(c6ccc(C(=O)NC7CCC(=O)NC7=O)cc6)C5)CC4)cn3)nc2n(C2CCCC2)c1=O (centres unmarked) [Compound 102] | DC50 | 50 to 200 nM
Cc1nc2c(F)cc(-c3nc(Nc4ccc(CC5CCN(CC6CN(c7ccc8c(c7)CN(C7CCC(=O)NC7=O)C8=O)C6)CC5)cn4)ncc3F)cc2n1C(C)C (centres unmarked) [Compound 140] | DC50 | < 50 nM

Inquiry: Name the reported DC50 value associated with the compound CC(=O)c1c(C)c2cnc(Nc3ccc(C4CCN(CC5CN(c6ccc(C(=O)NC7CCC(=O)NC7=O)cc6)C5)CC4)cn3)nc2n(C2CCCC2)c1=O (centres unmarked) [Compound 127]
Reply text: 50 to 200 nM

Inquiry: Bench note: what DC50 did CC(=O)c1c(C)c2cnc(Nc3ccc(N4CCN(CC5CCN(c6ccc(N7CCC(=O)NC7=O)cc6)CC5)CC4)cn3)nc2n(C2CCCC2)c1=O [Compound 112] show?
Reply text: < 50 nM

Inquiry: So what does the record say about DC50 for CC(=O)c1c(C)c2cnc(Nc3ccc(N4CCN(CC5CCN(C(=O)Nc6ccc7c(c6)CN(C6CCC(=O)NC6=O)C7=O)CC5)CC4)cn3)nc2n(C2CCCC2)c1=O (centres unmarked) [Compound 42] ?
Reply text: 50 to 200 nM

Inquiry: Return reported DC50; argument: CC(=O)c1c(C)c2cnc(Nc3ccc(N4CCN(CCN5CCN(c6ccc7c(c6)CN(C6CCC(=O)NC6=O)C7=O)CC5)CC4)cn3)nc2n(C2CCCC2)c1=O (centres unmarked) [Compound 68]
Reply text: 50 to 200 nM

Measured values drawn from patent US20230295118A1 for this set.
